target: Cytochrome P450 3A4 (Homo sapiens); assay: Cytochrome panel assay with activity outcomes; settings: recombinant CYP, pro-luciferin dealkylation, luminescence, p450-cyp3a4; series mostly up to 57.1 µM
Screen size: about 16,000 compounds; about 5,100 (32%) were called active. Roughly 25% stayed inconclusive and do not appear here. The call rests on the fitted dose curve; in most records, active means well fitted curve in the direction sought with a large enough effect; inconclusive means small, poorly fitted or top-dose-only effect, or effect the other way; inactive means no such curve, though single readings can be large or run the other way. The list shows a part of the results.
Field 'call' accepts y = active, n = inactive

q: Give the logged outcome of this assay for the following compound: COc1ccc(COC2OC[C@]3(C)[C@H]4C5=C(CN3C(=O)OC(C)(C)C)[C@H](C)C(CO)C(CO)C5CC[C@@H]24)cc1 (stereo not given in full)
a: y

q: Call for entry CCS(=O)(=O)N1CCC(C(=O)NCCCN2CCN(c3ccccc3F)CC2)CC1 :
a: n

q: Would you mind telling me which call this test gave O=S(=O)(c1ccccc1)N1CCC[C@@]2(CCN(c3ccccc3)C2)C1 ?
a: y

q: # fetch the recorded call for O=S(=O)(c1ccccc1)N1CCC[C@@]2(CCN(c3ccncc3)C2)C1 here
a: y

q: Name the outcome recorded for Cc1ccc(CS(=O)(=O)CCC(=O)NCCCN2CCCC2=O)cc1 in the assay.
a: n
